Tested on: HEK293T-Rex XBP1-RLuc
Experiment: EC50 for XBP1-RLuc reporter activation
Details: 18 h
Measurement type: EC50 for XBP1-RLuc reporter activation

Query: Value lookup for EC50 for XBP1-RLuc reporter activation; key = O=C(Nc1ccccc1O)c1ccc(NS(=O)(=O)c2cccc3cccnc23)cc1
Result: > 16.9 µM

Query: And the next one, COc1ccc(/C=C/c2ccc3cccc(OC(C)=O)c3n2)cc1OC(C)=O ?
Result: > 16.9 µM

Query: And the next one, Cc1cccc2c1[nH]c1nc(N/N=C\c3c[nH]c4ccccc34)nnc12 ?
Result: > 16.9 µM

Query: And the next one, Nc1ccccc1NC(=O)c1ccc(Cl)cc1 ?
Result: > 17.2 µM

Query: And the next one, Cc1cc2nc(/C(C#N)=C/c3ccco3)[nH]c2cc1C ?
Result: > 16.9 µM

Query: And the next one, Oc1ccc(-c2csc(-c3cccnc3)n2)cc1O ?
Result: 12.8 µM

Query: And the next one, Cc1ccc(O)c(NC(=S)NC(=O)/C=C/c2ccco2)c1 ?
Result: > 16.9 µM

Query: And the next one, COC(=O)c1ccc2c(COC(C)=O)c(OC(C)=O)ccc2c1COC(C)=O ?
Result: > 16.9 µM

Query: And the next one, CC(=Nc1ccc(O)cc1)c1sc2ccccc2c1O ?
Result: > 19.6 µM

Query: And the next one, O=C(N/N=C\C(Cl)=C\c1ccccc1)c1n[nH]c2c1CCCC2 ?
Result: > 16.9 µM

Query: And the next one, Cc1ccc(Nc2nc(N)c3ccccc3n2)cc1Cl ?
Result: > 16.9 µM

Query: And the next one, O=c1cc(-c2ccc(O)c(O)c2)oc2cc(O)cc(O)c12 ?
Result: > 16.9 µM

Query: And the next one, Nc1ccc2nc(-c3ccccn3)[nH]c2c1 ?
Result: > 16.9 µM

Query: And the next one, O=C(N/N=C/c1ccc(Cl)cc1Cl)c1ccc(O)c(O)c1 ?
Result: > 16.9 µM

Query: And the next one, CCOc1ccc(NC(=O)c2cccc(F)c2)c([N+](=O)[O-])c1 ?
Result: > 14.3 µM

Query: And the next one, CCCNc1ccnc(N2CCc3ccccc3C2)n1 ?
Result: > 17.7 µM

Query: And the next one, CC(=O)N1CCc2c([nH]c3ccccc23)C12CCN(CCCOc1ccccc1)CC2 ?
Result: 2.11 µM

Query: And the next one, O=C(NCCc1ccccc1)c1cc(-c2cccs2)on1 ?
Result: > 16.9 µM

Query: And the next one, CCCCNNC(=O)c1ccc(Br)cc1 ?
Result: > 17.4 µM

Query: And the next one, Nc1ccc2nc(-c3ccc(Br)cc3)[nH]c2c1 ?
Result: 17.3 µM

Query: And the next one, CCCCCCOc1ccc(/C(C)=N/NC2=NCCN2)cc1[N+](=O)[O-] ?
Result: > 16.9 µM

Query: And the next one, NN1C(=O)/C(=C/c2ccc(O)c(O)c2)SC1=S ?
Result: > 16.9 µM

Query: And the next one, Cc1nn(-c2ccc(F)cc2)c2ncc(C(=O)NCc3ccco3)c(Cl)c12 ?
Result: 12.6 µM

Query: And the next one, COc1ccc(-n2nnnc2SCC(N)=O)c(OC)c1 ?
Result: > 16.9 µM

Query: And the next one, CCN(CC)c1ccc(NC(=O)c2cccc(OC)c2)cc1 ?
Result: > 17.8 µM
